From: ChEMBL document CHEMBL1156140

For each of the molecules below, state its pIC50.
# Test system: HeLa
# assay.notes: Cytotoxicity against human HeLa cells by MTT assay
# Assay type: functional, cell-based
# condition.details: Homo sapiens, HeLa
// pIC50: -log10(molar conc.)

Query :: Find the measured pIC50 of COc1ccc(C#Cc2cc(OC)c(OC)c(OC)c2)cc1O and report it.
Result :: 5.81

Query :: Give pIC50 for COCOc1cc(C2CC2c2cc(OC)c(OC)c(OC)c2)ccc1OC (stereo unspecified)
Result :: 4.62

Query :: Answer with reported pIC50 of COc1ccc(/C=C\c2cc(OC)c(OC)c(OC)c2)cc1O
Result :: 9.29

Query :: Return pIC50 for the following molecule: COc1ccc(/C=C\c2cc(OC)c(OC)c(OC)c2)cc1NC(=O)OC(C)(C)C
Result :: 5.93

Query :: Please supply the value of reported pIC50 for the item COCOc1cc(/C=C\c2cc(OC)c(OC)c(OC)c2)ccc1OC
Result :: 6.71
